# Tested on: PMA-stimulated P90RSK(Ser380) phosphorylation in HepG2 cells
# test_name: Cellular P90RSK(Ser380) Phosphorylation Assay
# Assay type: cell-based
# experimental_context: Homo sapiens, 1.5 h compound incubation, PMA stimulation, pP90RSK(Ser380) normalized to GAPDH, read-out: Cell Assay IC50
recorded_metric: pIC50
# pIC50 is unitless: minus log10 of the molar concentration; print number only

Example compounds with recorded pIC50:
CNC(=O)C(NC(=O)N1CCc2cnc(NC(C)C)nc2C1)c1ccc(F)c(Cl)c1 (stereo not shown) :: 4.91
CC(C)OC[C@@H](NC(=O)N1CCc2cnc(N[C@H]3CC[C@H](O)C3)nc2C1)c1ccc(F)c(Cl)c1 :: 6.26
COCC(=O)OC[C@@H](NC(=O)N1CCc2cnc(NC3CCOCC3)nc2C1)c1ccc(F)c(Cl)c1 :: 7.18
C[C@@H](NC(=O)N1CCc2cnc(NC3CCN(C)CC3)nc2C1)c1ccc(Cl)c(Cl)c1 :: 5.60
C[C@@H](CO)Nc1ncc2c(n1)CN(C(=O)NC1CNCC1c1ccc(C(F)(F)F)cc1)CC2 (mixture of isomers) :: 5.00
COCCOC[C@@H](NC(=O)N1CCc2cnc(N[C@@H](C)CO)nc2C1)c1ccc(F)c(Cl)c1 :: 5.85

Alright, here's another compound for you.
Item: O=C(NC(c1cn[nH]c1)c1ccc(Cl)c(F)c1)N1CCc2cnc(NC3CCOCC3)nc2C1 (stereo not shown) | pIC50: 7.36

---

# Test system: PMA-stimulated P90RSK(Ser380) phosphorylation in HepG2 cells
# test_name: Cellular P90RSK(Ser380) Phosphorylation Assay
# Assay type: cell-based
# experimental_context: Homo sapiens, 1.5 h compound incubation, PMA stimulation, pP90RSK(Ser380) normalized to GAPDH, read-out: Cell Assay IC50
Structures can show the parent of a compound that is named as a salt.
recorded_metric: IC50 (nM)
Report the value in nM with no unit label.

Item: CNC[C@@H](NC(=O)N1CCc2cnc(Nc3ccc(F)cc3)nc2C1)c1ccc(C(F)(F)F)c(F)c1 [Compound I-68, hydrochloride] | IC50: 146

Item: CC(C)Nc1ncc2c(n1)CN(C(=O)N[C@@H](c1ccc(Cl)c(Cl)c1)[C@H]1CCCN1C)CC2 | IC50: 93

Item: CCCC(NC(=O)N1CCc2cnc(N[C@@H](C)CO)nc2C1)c1ccc(OC)c(F)c1 (stereo partly drawn) | IC50: 39.5

Item: C[C@@H](NC(=O)N1CCc2cnc(NC3CC(F)(F)C3)nc2C1)c1ccc(Cl)c(Cl)c1 | IC50: 970

Item: C[C@@H](CO)Nc1ncc2c(n1)CN(C(=O)NCc1cccc3cc[nH]c13)CC2 | IC50: 1000

Item: Cc1nccc(Nc2ncc3c(n2)CN(C(=O)N[C@H](C)c2ccc(Cl)c(Cl)c2)CC3)n1 | IC50: 141

Item: CC(C)Nc1ncc2c(n1)CN(C(=O)N[C@H](CNc1ncccn1)c1ccc(F)c(Cl)c1)CC2 | IC50: 1000

Item: O=C(NC(c1ccc(Cl)c(F)c1)c1nnco1)N1CCc2cnc(NC3CCOCC3)nc2C1 (stereo not drawn) [Compound I-9] | IC50: 71.7

Item: CC(C)Nc1ncc2c(n1)CN(C(=O)N[C@H](CNc1ccncn1)c1ccc(F)c(Cl)c1)CC2 | IC50: 435

Item: CC(C)Nc1ncc2c(n1)CN(C(=O)N[C@H](CCN)c1ccc(C(F)(F)F)cc1)CC2 | IC50: 694
